- experimental system: Chimeric 1G4
- run description: Biacore
measurement name: pKd
Please note pKd is a logarithmic value: minus log10 of concentration in mol/L. Answer with that number alone.

Record LY6G6D (other) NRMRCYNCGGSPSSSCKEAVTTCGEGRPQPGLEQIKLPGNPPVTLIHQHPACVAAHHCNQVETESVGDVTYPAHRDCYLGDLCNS , field pKd: 8.57
